Taken from patent US4431665A.

Can you tell me Lactic Acid Accumulation for the items I'm about to list?
Tested on: rumen contents (lactic acid accumulation)
Assay: Inhibition of lactic acid accumulation, second batch culture fermentation of rumen contents with glucose
Type: cell-based, bovine (rumen fistulated)
Settings: Table 6; 5 μg/ml; 6 h, 39° C.; 0 μg/ml: 36.65
Numbers only here, please. The scale is µmol/mL.

Query string: Sample CCCCCCCCCC(=O)OCC1(O)OC(C2CC(C)C(C3(C)CCC(C4(C)CCC5(CC(O)C(C)C(C(C)C(OC(=O)CC)C(C)C(=O)O)O5)O4)O3)O2)C(C)CC1C (stereo not shown) [L. C10, laidlomycin decanoate] — what was its Lactic Acid Accumulation?
Result string: 0.94

Query string: // next record CCCCCCCC(=O)OCC1(O)OC(C2CC(C)C(C3(C)CCC(C4(C)CCC5(CC(O)C(C)C(C(C)C(OC(=O)CC)C(C)C(=O)O)O5)O4)O3)O2)C(C)CC1C (stereo not shown) [L. C8, laidlomycin octanoate]
Result string: 1.27

Query string: // next record CCCCCCCCCCCC(=O)OCC1(O)OC(C2CC(C)C(C3(C)CCC(C4(C)CCC5(CC(O)C(C)C(C(C)C(OC(=O)CC)C(C)C(=O)O)O5)O4)O3)O2)C(C)CC1C (stereo not shown) [L. C12, laidlomycin dodecanoate]
Result string: 3.32

Query string: // next record CCCCCCC(=O)OCC1(O)OC(C2CC(C)C(C3(C)CCC(C4(C)CCC5(CC(O)C(C)C(C(C)C(OC(=O)CC)C(C)C(=O)O)O5)O4)O3)O2)C(C)CC1C (stereo not shown) [L. C7, laidlomycin heptanoate]
Result string: 1.16
